Test: absolute recovery over mixed-bed multilayer solid-phase extraction; higher = better recovery
Details: surface water; enrichment method: SPE
Property: absolute recovery; scope: individual molecules
Field: numeric (%). Do not append units.

Sample CC(=O)OC1C(C)OC(n2cc(F)c(N)nc2=O)C1OC(C)=O (stereo not given) ; absolute recovery observed: 100

Sample CSC1=NC(C)(c2ccccc2)C(=O)N1Nc1ccccc1 (stereo not given) ; absolute recovery observed: 107

Sample O=C(Cc1ccccc1)NC(=NOCC1CC1)c1c(C(F)(F)F)ccc(F)c1F ; absolute recovery observed: 106

Sample O=C1CCC2(O)C3Cc4ccc(O)c5c4C2(CC[NH+]3CC2CC2)C1O5 (stereo not given) [Naltrexon] ; absolute recovery observed: 98.2

Sample Cc1cccc(C)c1OCC(C)[NH3+] (stereo not given) ; absolute recovery observed: 68.7

Sample COC(=O)c1ccc(CNS(C)(=O)=O)cc1S(=O)(=O)[N-]C(=O)Nc1nc(OC)cc(OC)n1 ; absolute recovery observed: 95

Sample FC(F)(F)c1cccc(N2CC[NH2+]CC2)c1 ; absolute recovery observed: 71.9

Sample NC(=O)N1c2ccccc2C2OC2c2ccccc21 (stereo not given) [Carbamazepin-10-11-epoxid] ; absolute recovery observed: 97.3

###

Assay: absolute recovery over vacuum-assisted evaporative concentration; higher = better recovery
Conditions: wastewater influent; enrichment method: VEC
measured_attribute: absolute recovery (%)
Field: numeric (%). Do not append units.

The cases that follow already have their absolute recovery on record.
compound: CC(C)CC(C)(O)C#CC(C)(O)CC(C)C (stereo unspecified) [Surfynol-104A]
absolute recovery (%): 70.8

compound: CC(C)[NH2+]CC(O)COc1ccc(CC(N)=O)cc1 (stereo unspecified)
absolute recovery (%): 103

compound: NC(=O)N1c2ccccc2C2OC2c2ccccc21 (stereo unspecified) [Carbamazepin-10-11-epoxid]
absolute recovery (%): 102

Sample Cc1nnc(-c2ccccc2)c(=O)n1N ; absolute recovery observed: 98.5

Sample CC(=O)Nc1ccc(S(=O)(=O)[N-]c2ncccn2)cc1 ; absolute recovery observed: 99.5

Sample Cc1cc(C2CC2)nc(Nc2ccccc2)n1 ; absolute recovery observed: 88.2

###

Assay: absolute recovery over vacuum-assisted evaporative concentration; higher = better recovery
Details: wastewater effluent; enrichment method: VEC
Property: absolute recovery; scope: individual compounds
Field: numeric (%). Do not append units.

The cases that follow already have their absolute recovery on record.
compound: Cc1cccc(C)c1N(Cn1cccn1)C(=O)CS(=O)(=O)[O-]
absolute recovery [%]: 102
--
compound: CCCOC(=O)NCCC[NH+](C)C
absolute recovery [%]: 105
--
compound: O=C(NCc1ncc(C(F)(F)F)cc1Cl)c1c(Cl)cccc1Cl [Fluopicolide]
absolute recovery [%]: 115
--
compound: NC(=O)N1c2ccccc2CC(=O)c2ccccc21 [Oxcarbazepin]
absolute recovery [%]: 87.8
--
compound: COC(=O)c1ccc(CNS(C)(=O)=O)cc1S(=O)(=O)[N-]C(=O)Nc1nc(OC)cc(OC)n1
absolute recovery [%]: 111

Sample Cn1sc(Cl)cc1=O ; absolute recovery observed: 65.2

Sample COc1nc(C)nc(NC(=O)[N-]S(=O)(=O)c2ccccc2CCC(F)(F)F)n1 ; absolute recovery observed: 108

Sample COP(=O)(OC)SCn1c(=O)oc2cc(Cl)cnc21 ; absolute recovery observed: 82.9

Sample COc1c(C)c2c(c(O)c1CC=C(C)CCC(=O)[O-])C(=O)OC2 ; absolute recovery observed: 103

Sample CCOCN(C(=O)CCl)c1c(C)cccc1CC ; absolute recovery observed: 83.4

Sample CC(=O)Nc1ccc(S(=O)(=O)[N-]c2ncccn2)cc1 ; absolute recovery observed: 113

###

Experiment: absolute recovery over mixed-bed multilayer solid-phase extraction; higher = better recovery
Details: wastewater influent; enrichment method: SPE
measured_attribute: absolute recovery (%)
Field: numeric (%). Do not append units.

The cases that follow already have their absolute recovery on record.
molecule: O=C(c1ccccc1)c1ccc(Cl)cc1
measured_attribute: absolute recovery
unit_tag: %
data_value: 37.3
--
molecule: O=C(NCCc1ncc(C(F)(F)F)cc1Cl)c1ccccc1C(F)(F)F
measured_attribute: absolute recovery
unit_tag: %
data_value: 102

Sample Cc1c(N)c(=O)n(-c2ccccc2)n1C [4-Aminopyrin (=4-Aminoantipyrin, 4-AA)] ; absolute recovery observed: 37.4

###

Assay: LC retention time (Atlantis T3, 5-95% MeOH gradient, 0.1% formic acid); higher = more retained / less polar
measured_attribute: LC retention time (min)
Field: numeric (min). Do not append units.

Sample CC(C)N(Cc1ccccc1)C(=O)C(C)(C)C ; LC retention time observed: 20.5

Sample CCOC(=O)NCCOc1ccc(Oc2ccccc2)cc1 ; LC retention time observed: 20.4

Sample CC(=O)Nc1c(I)c(NC(C)=O)c(I)c(C(=O)[O-])c1I [Diatrizoate (=Amidotrizoic-acid)] ; LC retention time observed: 10

###

Test: LC retention time (Atlantis T3, 5-95% MeOH gradient, 0.1% formic acid); higher = more retained / less polar
Property: LC retention time; scope: individual compounds
Field: numeric (min). Do not append units.

Sample Cc1c(OCC(F)(F)F)ccnc1CS(=O)c1nc2ccccc2[nH]1 (stereo not drawn) ; LC retention time observed: 17.1

Sample CCNc1nc(NCC)nc(OC)n1 ; LC retention time observed: 13

Sample COc1cc(Cc2c[nH+]c(N)nc2N)cc(OC)c1OC ; LC retention time observed: 10.5

Sample CC(C)N(C(=O)COc1nnc(C(F)(F)F)s1)c1ccc(F)cc1 ; LC retention time observed: 20.1

Sample NC(=O)N1c2ccccc2C(O)C(O)c2ccccc21 (stereo not drawn) [Carbamazepin-10-11-dihydro-10-11-dihydroxy] ; LC retention time observed: 15.3

Sample O=C(NCC1CCCC[NH2+]1)c1cc(OCC(F)(F)F)ccc1OCC(F)(F)F (stereo not drawn) ; LC retention time observed: 14.5

Sample Cn1cc(C(=O)Nc2ccc(F)cc2-c2ccc(Cl)c(Cl)c2)c(C(F)F)n1 ; LC retention time observed: 20.5

Sample COP(=O)(OC)OC=C(Cl)Cl ; LC retention time observed: 16.8

Sample Oc1ccc(C(F)(F)F)cc1 ; LC retention time observed: 18.3

Sample Nc1c(I)c(C(=O)[O-])c(I)c(C(=O)[O-])c1I ; LC retention time observed: 10.2

Sample Nc1cnn(-c2ccccc2)c(=O)c1Cl ; LC retention time observed: 14.7

Sample CN1C(=O)CC(C)(c2ccccc2)C1=O (stereo not drawn) [Methsuximide] ; LC retention time observed: 16.6

Sample CCNc1nc(Cl)nc(NC(C)C)n1 ; LC retention time observed: 18.5

###

Assay: absolute recovery over mixed-bed multilayer solid-phase extraction; higher = better recovery
Conditions: wastewater influent; enrichment method: SPE
Property: absolute recovery; scope: individual compounds
Field: numeric (%). Do not append units.

compound: C[NH+]=CNc1ccc(C)cc1C
measured_attribute: absolute recovery
unit_tag: %
data_value: 52.5
--
compound: CC[NH+](CC)CC(=O)Nc1c(C)cccc1C
measured_attribute: absolute recovery
unit_tag: %
data_value: 95
--
compound: CC1(C)CCC(Cc2ccc(Cl)cc2)C1(O)Cn1cncn1 (stereo not drawn)
measured_attribute: absolute recovery
unit_tag: %
data_value: 80.9
--
compound: COc1nc(C)nc(N)n1
measured_attribute: absolute recovery
unit_tag: %
data_value: 102

Sample CC(=O)NCC1CN(c2ccc(N3CCOCC3)c(F)c2)C(=O)O1 (stereo not drawn) ; absolute recovery observed: 99.5

Sample CCCCC(C#N)(Cn1cncn1)c1ccc(Cl)cc1 (stereo not drawn) ; absolute recovery observed: 85.1

Sample CC(C)[NH2+]CC(O)COc1ccc(CC(N)=O)cc1 (stereo not drawn) ; absolute recovery observed: 90.6

Sample Cc1cc(C)nc(NC(=O)[N-]S(=O)(=O)c2ccccc2C(=O)OC2COC2)n1 ; absolute recovery observed: 83.6

Sample CCC(=O)OC(Cc1ccccc1)(c1ccccc1)C(C)C[NH+](C)C (stereo not drawn) ; absolute recovery observed: 72.4

Sample CN(C)S(=O)(=O)Nc1ccccc1 ; absolute recovery observed: 136

Sample CN1COCN(Cc2cnc(Cl)s2)C1=N[N+](=O)[O-] ; absolute recovery observed: 94.2

Sample CCCS(=O)(=O)[O-] [1-Propanesulfonate] ; absolute recovery observed: 1.7

Sample CCS(=O)(=O)c1cccnc1S(=O)(=O)[N-]C(=O)Nc1nc(OC)cc(OC)n1 ; absolute recovery observed: 95.2

###

Assay: absolute recovery over mixed-bed multilayer solid-phase extraction; higher = better recovery
Details: wastewater effluent; enrichment method: SPE
Each record's absolute recovery is compared with low band (below 70%), middle band (70% to below 90%), high band (90% or more) to give its class.

Query: Band for Cc1nn(-c2cc(NS(C)(=O)=O)c(Cl)cc2Cl)c(=O)n1C(F)F ?
Response: high band

Query: Band for Nc1ncnc2c1ncn2C1OC(CO)C(O)C1O (stereo not given) ?
Response: middle band

Query: Band for COc1cccc2c1C(=O)c1c(O)c3c(c(O)c1C2=O)CC(O)(C(=O)CO)CC3OC1CC([NH3+])C(O)C(C)O1 (stereo not given) ?
Response: low band

Query: Band for O=C1CC(C(=O)[O-])CC(=O)C1=C([O-])C1CC1 (stereo not given) [Trinexapac (free acid)] ?
Response: middle band

Query: Band for NC(=O)c1cn(Cc2c(F)cccc2F)nn1 ?
Response: high band
